This listing pairs compounds with measured IC50.
# Tested Target: Dual specificity protein kinase CLK4 (Homo sapiens, UniProt Q9HAZ1)
# Sequence (Q9HAZ1 whole entry): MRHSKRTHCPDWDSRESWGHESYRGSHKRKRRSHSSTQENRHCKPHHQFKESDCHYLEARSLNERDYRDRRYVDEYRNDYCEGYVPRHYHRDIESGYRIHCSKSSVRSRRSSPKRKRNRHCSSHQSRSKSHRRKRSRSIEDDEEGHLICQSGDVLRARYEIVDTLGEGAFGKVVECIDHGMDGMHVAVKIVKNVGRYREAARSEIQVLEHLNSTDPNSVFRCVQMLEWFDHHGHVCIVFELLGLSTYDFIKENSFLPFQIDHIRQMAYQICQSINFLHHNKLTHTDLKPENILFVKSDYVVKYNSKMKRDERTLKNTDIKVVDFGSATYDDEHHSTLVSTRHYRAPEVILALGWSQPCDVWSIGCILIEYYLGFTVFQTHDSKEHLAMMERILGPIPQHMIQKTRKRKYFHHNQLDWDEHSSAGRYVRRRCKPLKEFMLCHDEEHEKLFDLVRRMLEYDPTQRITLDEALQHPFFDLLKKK
# Test Name: Inhibition of human recombinant CLK4 using YRRAAVPPSPSLS substrate by radiometric scintillation assay
# number only, unit µM dropped from output

Check out these entries, answers already filled in.
{"columns": ["Structure Notation", "Recorded Endpoint", "Value Unit", "Numeric Result"],
 "data": [
  ["CC1(c2ccc(-c3coc4ccc(-c5cn[nH]c5)nc34)cc2)CC1", "IC50", "µM", 0.32],
  ["Cn1cc(-c2cccc(-c3coc4ccc(-c5cnn(C)c5)nc34)c2)cn1", "IC50", "µM", 0.017],
  ["c1n[nH]cc1-c1ccc2occ(-c3ccc(C4CCCCC4)cc3)c2n1", "IC50", "µM", 0.776],
  ["C=C(C)c1ccc(-c2coc3ccc(-c4cn[nH]c4)nc23)cc1", "IC50", "µM", 0.042],
  ["Cn1cc(-c2ccc3occ(-c4cccc(C5CCNCC5)c4)c3n2)cn1", "IC50", "µM", 0.052]
]}

Q: I am curious: what IC50 value has been reported for Cn1cc(-c2ccc3occ(-c4cccc(-c5cc[nH]n5)c4)c3n2)cn1 ?
Result: 0.015

Q: I am curious: what IC50 value has been reported for CN1CCC(c2cccc(-c3coc4ccc(-c5cnn(C)c5)nc34)c2)CC1 ?
Result: 0.116

Q: I am curious: what IC50 value has been reported for CC(C)(C)c1ccc(-c2coc3ccc(-c4cn[nH]c4)nc23)cc1 ?
Result: 1.47

Q: I am curious: what IC50 value has been reported for Cn1cc(-c2coc3ccc(-c4cn[nH]c4)nc23)cn1 ?
Result: 0.045

Q: I am curious: what IC50 value has been reported for c1ccc2cc(-c3coc4ccc(-c5cn[nH]c5)nc34)ccc2c1 ?
Result: 0.031

Q: I am curious: what IC50 value has been reported for Cn1cc(-c2ccc3occ(-c4cccc(-c5cn[nH]c5)c4)c3n2)cn1 ?
Result: 0.019

Q: I am curious: what IC50 value has been reported for c1ccc(Cc2ccc(-c3coc4ccc(-c5cn[nH]c5)nc34)cc2)cc1 ?
Result: 0.355

Q: I am curious: what IC50 value has been reported for c1ccc(-c2ccc(-c3coc4ccc(-c5cn[nH]c5)nc34)cc2)cc1 ?
Result: 0.126

Q: I am curious: what IC50 value has been reported for CC(C)Cc1ccc(-c2coc3ccc(-c4cn[nH]c4)nc23)cc1 ?
Result: 0.896

Q: I am curious: what IC50 value has been reported for c1ccc(-c2coc3ccc(-c4cn[nH]c4)nc23)cc1 ?
Result: 0.041

Q: I am curious: what IC50 value has been reported for COc1ccc(-c2coc3ccc(-c4cn[nH]c4)nc23)cc1 ?
Result: 0.046
